system: Staphylococcus; assay: Antimicrobial activity against oxacillin-resistant coagulase-negative Staphylococcus aureus by CLSI method; type: functional

>  <smiles_repr>
Cn1nnc(-c2ccc(-c3ccc(N4C[C@H](CO)OC4=O)cc3F)cn2)n1

>  <MIC50, µg/mL>
0.125

$$$$
>  <smiles_repr>
CN[C@H](CC(C)C)C(=O)N[C@H]1C(=O)N[C@@H](CC(N)=O)C(=O)N[C@H]2C(=O)N[C@H]3C(=O)N[C@H](C(=O)N[C@H](C(=O)O)c4cc(O)cc(O)c4-c4cc3ccc4O)[C@H](O)c3ccc(c(Cl)c3)Oc3cc2cc(c3O[C@@H]2O[C@H](CO)[C@@H](O)[C@H](O)[C@H]2O[C@H]2C[C@](C)(N)[C@H](O)[C@H](C)O2)Oc2ccc(cc2Cl)[C@H]1O

>  <MIC50, µg/mL>
2

$$$$
>  <smiles_repr>
CCCCCCCCCC(=O)N[C@@H](Cc1c[nH]c2ccccc12)C(=O)N[C@H](CC(N)=O)C(=O)N[C@@H](CC(=O)O)C(=O)N[C@@H]1C(=O)NCC(=O)N[C@@H](CCCN)C(=O)N[C@@H](CC(=O)O)C(=O)N[C@H](C)C(=O)N[C@@H](CC(=O)O)C(=O)NCC(=O)N[C@H](CO)C(=O)N[C@@H]([C@H](C)CC(=O)O)C(=O)N[C@@H](CC(=O)c2ccccc2N)C(=O)O[C@@H]1C

>  <MIC50, µg/mL>
0.25

$$$$
>  <smiles_repr>
CC(=O)N[C@@H]1[C@H](Oc2c3cc4cc2Oc2ccc(cc2Cl)[C@@H](O[C@@H]2O[C@@H](CO)[C@@H](O)[C@H](O)[C@@H]2NC(C)=O)[C@@H]2NC(=O)[C@H](NC(=O)[C@@H]4NC(=O)[C@H]4NC(=O)[C@@H](Cc5ccc(c(Cl)c5)O3)NC(=O)[C@H](N)c3ccc(O)c(c3)Oc3cc(O)cc4c3)c3ccc(O)c(c3)-c3c(O[C@H]4O[C@H](CO)[C@@H](O)[C@@H](O)[C@@H]4O)cc(O)cc3[C@@H](C(=O)O)NC2=O)O[C@@H](CO)[C@@H](O)[C@@H]1O

>  <MIC50, µg/mL>
2

$$$$
>  <smiles_repr>
CC(=O)NC[C@H]1CN(c2ccc(N3CCOCC3)c(F)c2)C(=O)O1

>  <MIC50, µg/mL>
1

$$$$

Source: ChEMBL document CHEMBL1255438
